Tested on: V79 (Chinese Hamster Lung Fibroblasts) cells
Experiment: In vitro cytotoxicity assay (light EC50, Alamar blue)
Type: cell-based
Settings: Table 4 azaporphyrins, 575 nm (Pt azaporphyrins 532 nm), 1.25 J/cm^2, read-out: In Vitro EC(50)
pEC50: −log10 of the molar value.
Rule: pEC50 under 6 gives n, otherwise y.

INSERT INTO assay_data (molecule, class_assignment) VALUES
  ('CCC1=C(CC)C2=Nc3c(CC)c(CC)c4[n]3[Pt][n]3c(c(C)c(CCC(=O)NCCCO)c3=CC3=NC(=C4)C(C)=C3CCC(=O)NCCCO)=CC1=N2 [Example 98]', 'n');

In: Check this molecule for pEC50 at or above 6: CCC1=C(CC)C2=[N+]3C1=Nc1c(CC)c(CC)c4[n]1[Pt-2]31[n]3c(c(C)c(CCC(=O)OC)c3=CC3=[N+]1C(=C4)C(C)=C3CCC(=O)OC)=C2 (stereo not drawn) [Example 85]
Out: n

In: Check this molecule for pEC50 at or above 6: CCC1=C(CC)C2=[N+]3C1=Nc1c(CC)c(CC)c4[n]1[Ga-2]31([Cl])[n]3c(c(C)c(CCC(=O)NC)c3=CC3=[N+]1C(=C4)C(C)=C3CCC(=O)NC)=C2 [Example 22]
Out: y

====

Test system: normal skin of CD Hairless male rats
Format: in vivo, rat
Conditions: rat, in vivo
Measured Parameter: Normal skin Response (1 μmol) (h)
Kindly answer with a numeric value in h, unit omitted.

INSERT INTO assay_data (compound, unit_text, value_observed) VALUES
  ('CCC1=C(C)c2cc3[n-]c(cc4nc(cc5[n-]c(cc1n2)c(C)c5CC)C(C)=C4CCCO)c(CCCO)c3C.[Pt+2] [Example 74]', 'h', 24),
  ('C=CC1=C(C)C2=Nc3c(C=C)c(C)c4[n]3[Ga-2]35([Cl])[n]6c(c(C)c(CCC(=O)NC)c6=CC6=[N+]3C(=C4)C(C)=C6CCC(=O)NC)=CC1=[N+]25 [M=Ga R1,R3=Me R2,R4=V R=CONHMe]', 'h', 24),
  ('CCC1=C(C)C2=[N+]3C1=Cc1c(C)c(CC)c4[n]1[Ga-2]31([Cl])[n]3c(c(C)c(CCC(=O)N(CC)CC)c3=CC3=[N+]1C(=C4)C(C)=C3CCC(=O)N(CC)CC)=C2 [Example 15]', 'h', 96),
  ('CCC1=C(C)c2cc3[n-]c(cc4nc(cc5[n-]c(cc1n2)c(C)c5CCC(=O)OC)C(CCC(=O)OC)=C4C)c(C)c3CC.[Cl-].[In+3] [Example 31]', 'h', 96),
  ('CCC1=C(CC)C2=[N+]3C1=Nc1c(CC)c(CC)c4[n]1[Sn-2]31([Cl])([Cl])[n]3c(c(C)c(CCC(=O)OC)c3=CC3=[N+]1C(=C4)C(C)=C3CCC(=O)OC)=C2 [Example 82]', 'h', 96),
  ('CCC1=C(CC)C2=[N+]3C1=Nc1c(CC)c(CC)c4[n]1[Ga-2]31([Cl])[n]3c(c(C)c(CCC(=O)O)c3=CC3=[N+]1C(=C4)C(C)=C3CCC(=O)O)=C2 [Example 87]', 'h', 24),
  ('CCC1=C(C)C2=Cc3c(CC)c(C)c4[n]3[Ga-2]35([Cl])[n]6c(c(C)c(C(=O)OC)c6=CC6=[N+]3C(=C4)C(C)=C6CCC(=O)NC)=CC1=[N+]25 [M=Ga R1=CONHMe R2=Et R3=Et R4=CO2Me R5=H]', 'h', 6),
  ('CCC1=C(C)c2cc3[n-]c(cc4nc(cc5[n-]c(cc1n2)c(C)c5CCC(=O)OC)C(CCC(=O)OC)=C4C)c(C)c3CC.[Zn+2] [Example 33, Zinc Mesoporphyrin Dimethyl Ester]', 'h', 24);

In: Please report Normal skin Response (1 μmol) for the following compound: CCC1=C(CC)C2=[N+]3C1=Nc1c(CC)c(CC)c4[n]1[Pt-2]31[n]3c(c(C)c(CCC(=O)[O-])c3=CC3=[N+]1C(=C4)C(C)=C3CCC(=O)[O-])=C2.[K+].[K+] (centres unmarked) [Example 86]
Out: 96

In: Please report Normal skin Response (1 μmol) for the following compound: CCC1=C(C)C2=[N+]3C1=Cc1c(C)c(CC)c4[n]1[Sn-2]31([Cl])([Cl])[n]3c(c(C)c(CCC(=O)NC)c3=CC3=[N+]1C(=C4)C(C)=C3CCC(=O)NC)=C2 [Example 58]
Out: 24

In: Please report Normal skin Response (1 μmol) for the following compound: CCC1=C(C)C2=Cc3c(CC)c(C)c4[n]3[Ga-2]35([Cl])[n]6c(c(C)c(CCCC(=O)OCCF)c6=CC6=[N+]3C(=C4)C(C)=C6CCCC(=O)OCCF)=CC1=[N+]25 [M=Ga R1=Et R3=Me R4=Et R2=CH2CO2CH2CH2F]
Out: 24

In: Please report Normal skin Response (1 μmol) for the following compound: CCC1=C(C)C2=Cc3c(CC)c(C)c4[n]3[Ga-2]35([Cl])[n]6c(c(C)c(CCC(=O)O)c6=CC6=[N+]3C(=C4)C(C)=C6CCC(=O)O)=CC1=[N+]25 [M=Ga R1=Et R3=Me R4=Et R2=CO2H]
Out: 24

In: Please report Normal skin Response (1 μmol) for the following compound: CCC1=C(C)C2=[N+]3C1=Cc1c(C)c(CC)c4[n]1[Ga-2]31([OH])[n]3c(c(C)c(CCCNCCCO)c3=CC3=[N+]1C(=C4)C(C)=C3CCCNCCCO)=C2 [Example 78]
Out: 6

In: Please report Normal skin Response (1 μmol) for the following compound: CCOC(=O)CCC1=C(C)c2cc3[n-]c(cc4nc(cc5[n-]c(cc1n2)c(CCC(=O)OCC)c5C)C=C4C)cc3C.[Cl-].[Ga+3] [Example 5]
Out: 48

In: Please report Normal skin Response (1 μmol) for the following compound: CCC1=C(C)C2=Cc3c(CC)c(C)c4[n]3[Ga-2]35([Cl])[n]6c(c(C)c(CO)c6=CC6=[N+]3C(=C4)C(C)=C6CCCO)=CC1=[N+]25 [M=Ga R1=CH2OH R2=Et R3=Et R4=CH2OH R5=H]
Out: 48

In: Please report Normal skin Response (1 μmol) for the following compound: CCC1=C(C)C2=[N+]3C1=Cc1c(C)c(CC)c4[n]1[Zn-2]31[n]3c(c(C)c(CCC(=O)N(CC)CC)c3=CC3=[N+]1C(=C4)C(C)=C3CCC(=O)N(CC)CC)=C2 (centres unmarked) [Example 62, Zinc Mesoporphyrin N,N-diethylamide]
Out: 24

====

Tested on: normal uninjured rat carotid arteries (medial and adventitial cell populations)
Experiment: In vivo rat carotid artery acellularity after PDT
Parameters: species or system Sprague Dawley rats
Conditions: Table 4; drug dose 1 μMol; 575 nm (Pt 532 nm)
Measured Parameter: Max % Rat Artery Accelularity (%)
Kindly answer with a numeric value in %, unit omitted.

In: Provide the reported Max % Rat Artery Accelularity (system: normal uninjured rat carotid arteries (medial and adventitial cell populations)) for C=CC1=C(C)C2=Nc3c(C=C)c(C)c4[n]3[Ga-2]35([Cl])[n]6c(c(C)c(CCC(=O)NC)c6=CC6=[N+]3C(=C4)C(C)=C6CCC(=O)NC)=CC1=[N+]25
Out: 50

In: Provide the reported Max % Rat Artery Accelularity (system: normal uninjured rat carotid arteries (medial and adventitial cell populations)) for CCC1=C(CC)C2=[N+]3C1=Nc1c(CC)c(CC)c4[n]1[Ga-2]31([Cl])[n]3c(c(C)c(CCC(=O)OC)c3=CC3=[N+]1C(=C4)C(C)=C3CCC(=O)OC)=C2
Out: 60

In: Provide the reported Max % Rat Artery Accelularity (system: normal uninjured rat carotid arteries (medial and adventitial cell populations)) for CCC1=C(CC)C2=[N+]3C1=Nc1c(CC)c(CC)c4[n]1[Sn-2]31([Cl])([Cl])[n]3c(c(C)c(CCC(=O)OC)c3=CC3=[N+]1C(=C4)C(C)=C3CCC(=O)OC)=C2
Out: 30

In: Provide the reported Max % Rat Artery Accelularity (system: normal uninjured rat carotid arteries (medial and adventitial cell populations)) for CCC1=C(CC)C2=Nc3c(CC)c(CC)c4[n]3[Ga]([Cl])[n]3c(c(C)c(CCCC(=O)OC)c3=CC3=NC(=C4)C(C)=C3CCCC(=O)OC)=CC1=N2
Out: 55

In: Provide the reported Max % Rat Artery Accelularity (system: normal uninjured rat carotid arteries (medial and adventitial cell populations)) for CCC1=C(CC)C2=[N+]3C1=Nc1c(CC)c(CC)c4[n]1[In-2]31([Cl])[n]3c(c(C)c(CCC(=O)OC)c3=CC3=[N+]1C(=C4)C(C)=C3CCC(=O)OC)=C2
Out: 50

====

Tested on: normal skin of CD Hairless male rats
Format: in vivo, rat
Details: Table 3; time of last skin spot observed post injection; 1 μmol; 532 nm laser
Measured Parameter: Normal skin Response (1 μmol)

Examples with answers:
INSERT INTO results (structure, value_observed) VALUES
  ('C=CC1=C(C)c2cc3[n-]c(cc4nc(cc5[n-]c(cc1n2)c(C)c5CCC(=O)OC)C(CCC(=O)OC)=C4C)c(C)c3C=C.[Cl-].[Ga+3]', '6 h'),
  ('CCOP(=O)(CCCC1=C(C)c2cc3cc(C)c(cc4nc(cc5[n-]c(cc1n2)c(CCCP(=O)(OCC)OCC)c5C)C(C)=C4)[n-]3)OCC.[Cl-].[In+3]', '48 h'),
  ('CCC1=C(C)C2=NC1=Cc1c(C)c(CC)c3[n]1[Sn]([Cl])([Cl])[n]1c(c(C)c(CCCC(=O)OC)c1=CC1=NC(=C3)C(C)=C1CCCC(=O)OC)=C2', '24 h'),
  ('CC1=Cc2cc3[n-]c(cc4nc(cc5[n-]c(cc1n2)cc5C)C(C)=C4CCC(=O)OCCF)c(CCC(=O)OCCF)c3C.[Cl-].[Ga+3]', '48 h'),
  ('CCCOC(=O)CCCC1=C(C)C2=Cc3c(CC)c(C)c4[n]3[Ga]([Cl])[n]3c(c(C)c(CCCC(=O)OCCC)c3=CC1=N2)=CC1=NC(=C4)C(CC)=C1C', '48 h');

Shifting focus to the compound that follows.
In: Please report Normal skin Response (1 μmol) for the following compound: CCC1=C(C)c2cc3[n-]c(cc4nc(cc5[n-]c(cc1n2)c(C)c5CC)C(C)=C4CCCN1CCCC1)c(CCCN1CCCC1)c3C.[Pt+2]
Out: 96 h
